Measured MIC of individual entries
System: carbapenemase producing K. pneumoniae
Experiment: MIC by broth micro-dilution (CLSI), carbapenemase producing K. pneumoniae
Format: cell-based, Klebsiella pneumoniae
Conditions: Klebsiella pneumoniae, ATCCBAA1705, KPC-2 K. pneumoniae ATCC BAA-1705; read-out: MIC

COMPOUND: C[C@@H](NC(=O)C(F)F)[C@H]1C(=O)N2C(C(=O)O)=C(S[C@@H]3CN[C@H](C(=O)N4C[C@H](NC(=N)N)[C@@H](O)C4)C3)[C@H](C)[C@H]12
MIC, µg/mL: 32
//
COMPOUND: C[C@@H](NC(=O)C(F)F)[C@H]1C(=O)N2C(C(=O)O)=C(S[C@@H]3CN[C@H](C(=O)N4CC[C@@H](N)C4)C3)[C@H](C)[C@H]12
MIC, µg/mL: 4
//
COMPOUND: CNCc1cn([C@H](C)[C@H]2C(=O)N3C(C(=O)O)=C(SC4CN[C@H](C(=O)N(C)C)C4)[C@H](C)[C@H]23)nn1 (stereo partly drawn)
MIC, µg/mL: 8

---

Tested on: carbapenemase producing K. pneumoniae
Assay: MIC by broth micro-dilution (CLSI), carbapenemase producing K. pneumoniae
Assay type: cell-based, Klebsiella pneumoniae
Settings: Klebsiella pneumoniae, ATCCBAA1705, KPC-2 K. pneumoniae ATCC BAA-1705; read-out: MIC
MEASURED ATTRIBUTE: MIC

COMPOUND: C[C@@H](NC(=O)C(F)F)[C@H]1C(=O)N2C(C(=O)O)=C(S[C@@H]3CNC(CN4CCCC4)C3)[C@H](C)[C@H]12 (stereo partly shown) [Example 81]
MEASURED ATTRIBUTE: MIC
REPORTED: 8 µg/mL
--
COMPOUND: CNCC(=O)N[C@H](C)[C@H]1C(=O)N2C(C(=O)O)=C(SC[C@H](N)C(=O)N3CC[C@@H](N)C3)[C@H](C)[C@H]12 [Example 273]
MEASURED ATTRIBUTE: MIC
REPORTED: 32 µg/mL
--
COMPOUND: CNCC(=O)N[C@H](C)[C@H]1C(=O)N2C(C(=O)O)=C(S[C@@H]3CN[C@H](C(=O)N(C)C)C3)[C@H](C)[C@H]12 [Example 112]
MEASURED ATTRIBUTE: MIC
REPORTED: 4 µg/mL
--
COMPOUND: C[C@@H](NC(=O)Cn1cnnn1)[C@H]1C(=O)N2C(C(=O)O)=C(S[C@@H]3CN[C@H](C(=O)N4C[C@@H](N)[C@H](O)C4)C3)[C@H](C)[C@H]12 [Example 329]
MEASURED ATTRIBUTE: MIC
REPORTED: 2 µg/mL
--
COMPOUND: C[C@@H](NC(=O)Cn1cnnn1)[C@H]1C(=O)N2C(C(=O)O)=C(SC3COC4(CNC4)C3)[C@H](C)[C@H]12 (single isomer, unassigned) [Example 557]
MEASURED ATTRIBUTE: MIC
REPORTED: 4 µg/mL
--
COMPOUND: C[C@@H](NC(=O)Cn1cnnn1)[C@H]1C(=O)N2C(C(=O)O)=C(S[C@@H]3CN[C@H](C(=O)N4CCC5(CNC5)C4)C3)[C@H](C)[C@H]12 [Example 502]
MEASURED ATTRIBUTE: MIC
REPORTED: 1 µg/mL
--
COMPOUND: COc1coc(CNC(=O)[C@@H]2C[C@H](SC3=C(C(=O)O)N4C(=O)[C@H]([C@@H](C)NC(=O)C(F)F)[C@H]4[C@H]3C)CN2)cc1=O [Example 137]
MEASURED ATTRIBUTE: MIC
REPORTED: 8 µg/mL
--
COMPOUND: C[C@@H](NC(=O)C(F)F)[C@H]1C(=O)N2C(C(=O)O)=C(S[C@@H]3CN[C@H](C(=O)N4CC[C@H](NC=N)C4)C3)[C@H](C)[C@H]12 [Example 184]
MEASURED ATTRIBUTE: MIC
REPORTED: 8 µg/mL
--
COMPOUND: COc1ccc(S(=O)(=O)N[C@H](C)[C@H]2C(=O)N3C(C(=O)O)=C(S[C@@H]4CN[C@H](C(=O)N(C)C)C4)[C@H](C)C23)cc1OC (stereo partly shown) [Example 9]
MEASURED ATTRIBUTE: MIC
REPORTED: > 128 µg/mL
--
COMPOUND: C[C@@H](NC(=O)Cn1cnnn1)[C@H]1C(=O)N2C(C(=O)O)=C(S[C@@H]3CN[C@H](C(=O)N4C[C@H]5C[C@H](N)C[C@@]5(N)C4)C3)[C@H](C)[C@H]12 [Example 574]
MEASURED ATTRIBUTE: MIC
REPORTED: 4 µg/mL
--
COMPOUND: C[C@@H](NC(=O)Cn1cnnn1)[C@H]1C(=O)N2C(C(=O)O)=C(S[C@@H]3CN[C@H](C(=O)N4CCN(CC(N)=O)CC4)C3)[C@H](C)[C@H]12 [Example 417]
MEASURED ATTRIBUTE: MIC
REPORTED: 2 µg/mL
--
COMPOUND: C[C@@H](NC(=O)CC#N)[C@H]1C(=O)N2C(C(=O)O)=C(S[C@@H]3CN[C@H](C(=O)N(C)C)C3)[C@H](C)[C@H]12 [Example 128]
MEASURED ATTRIBUTE: MIC
REPORTED: 8 µg/mL
--
COMPOUND: C[C@@H](NC(=O)C(F)F)[C@H]1C(=O)N2C(C(=O)O)=C(S[C@@H]3CN[C@H](C(=O)N4CC[C@H](NCC#N)C4)C3)[C@H](C)[C@H]12 [Example 175]
MEASURED ATTRIBUTE: MIC
REPORTED: 4 µg/mL
--
COMPOUND: C[C@@H](NC(=O)Cn1cnnn1)[C@H]1C(=O)N2C(C(=O)O)=C(S[C@@H]3CN[C@H](C(=O)N4CCCNCC4)C3)[C@H](C)[C@H]12 [Example 516]
MEASURED ATTRIBUTE: MIC
REPORTED: 2 µg/mL
--
COMPOUND: C[C@H]([C@H]1C(=O)N2C(C(=O)O)=C(S[C@@H]3CN[C@H](C(=O)N(C)C)C3)[C@H](C)[C@H]12)n1nnc(N)n1 [Example 326]
MEASURED ATTRIBUTE: MIC
REPORTED: 16 µg/mL
--
COMPOUND: C[C@@H](NC(=O)Cn1cnnn1)[C@H]1C(=O)N2C(C(=O)O)=C(S[C@@H]3CN[C@H](C(=O)N4CCC(N5CC(N)C5)CC4)C3)[C@H](C)[C@H]12 [Example 342]
MEASURED ATTRIBUTE: MIC
REPORTED: 8 µg/mL

---

Test system: carbapenemase producing K. pneumoniae
Experiment: MIC by broth micro-dilution (CLSI), carbapenemase producing K. pneumoniae
Type: cell-based, Klebsiella pneumoniae
Conditions: Klebsiella pneumoniae, ATCCBAA1705, KPC-2 K. pneumoniae ATCC BAA-1705; read-out: MIC
// reported MIC for each item listed

SAMPLE SMILES: C[C@H]([C@H]1C(=O)N2C(C(=O)O)=C(S[C@@H]3CN[C@H](C(=O)N(C)C)C3)[C@H](C)[C@H]12)n1cnnn1
MIC [µg/mL]: 1
--
SAMPLE SMILES: C[C@@H](NC(=O)C(F)F)[C@H]1C(=O)N2C(C(=O)O)=C(S[C@@H]3CN[C@H](C(=O)N4CC[C@@H](CN)C4)C3)[C@H](C)[C@H]12
MIC [µg/mL]: 4
--
SAMPLE SMILES: CNCC(=O)N[C@H](C)[C@H]1C(=O)N2C(C(=O)O)=C(SCCn3cc(O)c(=O)cc3CN)[C@H](C)[C@H]12
MIC [µg/mL]: 16
--
SAMPLE SMILES: CNCC(=O)N[C@H](C)[C@H]1C(=O)N2C(C(=O)O)=C(S[C@@H]3CN[C@H](C(=O)N4CCC(N)(C(N)=O)CC4)C3)[C@H](C)[C@H]12
MIC [µg/mL]: 4

---

# reported MIC; entries follow
System: carbapenemase producing K. pneumoniae
Assay: MIC by broth micro-dilution (CLSI), carbapenemase producing K. pneumoniae
Format: cell-based, Klebsiella pneumoniae
Conditions: Klebsiella pneumoniae, ATCCBAA1705, KPC-2 K. pneumoniae ATCC BAA-1705; read-out: MIC

MOLECULE: CN[C@@H]1CCN(C(=O)[C@@H]2C[C@H](SC3=C(C(=O)O)N4C(=O)[C@H]([C@@H](C)NC(=O)C(F)F)[C@H]4[C@H]3C)CN2)C1 [Example 149]
MIC: 8 µg/mL

MOLECULE: C[C@@H](NC(=O)C(F)(F)CN)[C@H]1C(=O)N2C(C(=O)O)=C(S[C@@H]3CN[C@H](C(=O)N(C)C)C3)[C@H](C)[C@H]12 [Example 138]
MIC: 64 µg/mL

MOLECULE: C[C@@H](NC(=O)[C@@H](N)Cn1ncnn1)[C@H]1C(=O)N2C(C(=O)O)=C(S[C@@H]3CN[C@H](C(=O)N(C)C)C3)[C@H](C)[C@H]12 [Example 323]
MIC: 8 µg/mL

MOLECULE: C[C@@H](NC(=O)Cn1cnnn1)[C@H]1C(=O)N2C(C(=O)O)=C(S[C@@H]3CN[C@H](C(=O)N4CC[C@@H](CN)C4)C3)[C@H](C)[C@H]12 [Example 472]
MIC: 2 µg/mL

MOLECULE: CCCNCC(=O)N[C@H](C)[C@H]1C(=O)N2C(C(=O)O)=C(S[C@@H]3CN[C@H](C(=O)N(C)C)C3)[C@H](C)C12 (stereo partly drawn) [Example 139]
MIC: 4 µg/mL

MOLECULE: C[C@H]([C@H]1C(=O)N2C(C(=O)O)=C(S[C@@H]3CN[C@H](C(=O)N4CC[C@@H](N)C4)C3)[C@H](C)[C@H]12)n1nnc(N)n1 [Example 327]
MIC: 32 µg/mL
